Test system: HL-60(TB) leukemia
ASSAY PROTOCOL: NCI tumour cell line growth inhibition, 48 h
Below, each entry is listed alongside its reported TGI.
READOUT NAME: TGI

1. COc1ccc2nc3c(c(N)c2c1)C1CCC3C1(C)C (stereo unspecified) :: 68.6 µM
2. CC1NOC(=O)C1N=Nc1ccc(Cl)cc1Cl (stereo unspecified) :: 44.8 µM
3. Cc1cc(O)c(/C=N/C(N)=S)c(=O)o1 :: 41.2 µM
4. O=C1c2ccccc2N2OC3(N4CCOCC4)CCCC3C12c1ccccc1 (stereo unspecified) :: > 100 µM
5. CCN(CC)CCNc1ccc2ncn3c4ccc(O)cc4c(=O)c1c23 :: 11.6 µM
6. COc1cc(C2c3cc4c(cc3OC(NN)C2C)OCO4)cc(OC)c1O (stereo unspecified) :: 5.32 µM
7. O=C(CCCC(=O)Nc1ccc(Cl)cc1Cl)CC(=O)c1ccc2ccccc2c1 :: > 100 µM
8. C1CSCCSCCCS[C@@H]2CCCCC2SC1 (stereo partly specified) :: > 100 µM
9. N#Cc1ccccc1OCCOc1ccccc1C#N :: > 100 µM
10. Cc1ccc(NC(=O)c2cc(S(=O)(=O)Nc3nnc(-c4ccccc4)c(-c4ccccc4)n3)c(SCc3ccccc3)cc2Cl)cc1 :: 41.6 µM
11. CC(=O)c1ccc(Nc2c3c(nc4ccccc24)CCCC3)cc1 :: > 100 µM

====

Tested on: UACC-62 melanoma
ASSAY PROTOCOL: NCI tumour cell line growth inhibition, 48 h; in the data active means GI50 below about 0.43 µM; inactive means the rest
Where a SMILES comes first, the peptide text is derived from it. The star is where a group is joined. Boc = CC(C)(C)OC(=O)*; OcHex = C1CCC(O*)CC1
Classes used: active, inactive

1. COc1ccccc1CNCCN1C(=O)c2ccc3c4c(ccc(c24)C1=O)C(=O)N(CCNCc1ccccc1OC)C3=O :: inactive
2. CC(C)CC(NC(=O)OC(C)(C)C)C(=O)NC(CCC(=O)OC1CCCCC1)C(N)=O (stereo not drawn) (Boc-Leu-Glu(OcHex)-NH2; configuration not given here) :: inactive
3. COc1ccc(C(O)c2cc3c(N)c(C(=O)Nc4cccc5ccccc45)sc3nc2C)cc1 (centres undefined) :: inactive
4. OCCCCC#Cc1ccccc1C#Cc1cccc(C(F)(F)F)c1 :: inactive
5. O=C1c2cc3c(cc2-c2c1c1ccc(Cl)cc1c(=O)n2C[C@H](O)CO)OCO3 :: active
6. CC(C)[C@@H]1CC[C@]2(CO2)[C@@H]2C(=O)OCC(C(=O)O)=C[C@H]21 :: active
7. Cc1cccc(Cn2cc(CO)c3cnccc32)c1 :: inactive
8. OCC1CC[N-]CC1.OCC1CC[N-]CC1.[Cl][Pt+2]([Cl])([Cl])[Cl] :: inactive
9. CN(C)c1ccc(-c2cc(-c3ccc(Nc4nc(Nc5ccc(Cl)cc5)nc(Nc5ccc(Cl)cc5)n4)cc3)nc(N)c2C#N)cc1 :: inactive

====

Below, each entry is listed alongside its reported TGI.
Test system: 786-0 renal
ASSAY PROTOCOL: NCI tumour cell line growth inhibition, 48 h
READOUT NAME: TGI

1. Cc1nc2c(sc3nc4c(cc32)CCC4)c(=O)o1 :: > 100 µM
2. C=C1CC[C@@H](CCC2CCC3(OC2)O[C@]2(O)CC[C@@]3(C)OC2(C)C)C(C)(C)[C@H]1C/C=C1\CCOC1=O (stereo not given in full) :: 31.3 µM
3. CCCC(=O)CC(C)C(=O)C(=O)NC12CC3CC(CC(C3)C1)C2 (stereo not given) :: > 100 µM
4. CCN1/C(=C/C#C/C(C)=C\c2sc3ccc(Cl)cc3[n+]2CC)Sc2ccc(Cl)cc21 :: 15.1 µM
5. CCN(CC)c1ccc2nc3ccc(=[N+](CC)CC)cc-3oc2c1 :: 2.6 µM
6. CCOc1cnc(C(O)(c2ccccc2)c2ccccc2)o1 :: > 100 µM
7. O=C(CCCC(=O)Nc1ccc(Cl)cc1Cl)CC(=O)c1ccc2ccccc2c1 :: > 100 µM
8. COC(=O)[C@@H]1CO[C@H](C(C)(C)C)N1C(=O)N1C=CC(=O)C[C@H]1C :: > 100 µM
9. Cn1c2ccccc2c(=O)c2c(O)cc3c(c21)C1OCC(C)(O)C1O3 (stereo not given) :: > 100 µM
10. CCOC(=O)/C(=C/c1ccccn1)C(=O)c1ccccc1 :: 25.9 µM

Recorded values, source PubChem BioAssay (NCI).
